These measurements were taken from patent US20180214548A1.

Target: T1, human PD-1^ECD-hFc protein (Immunogen A) (human, UniProt Q15116 25-167)
T1 construct: Biotinylated for the Octet assay; also called PD-1-hFc; hPD-1^ECD-hFc; not shown: human IgG Fc fragment (hFc)
T1 sequence (Q15116 25-167): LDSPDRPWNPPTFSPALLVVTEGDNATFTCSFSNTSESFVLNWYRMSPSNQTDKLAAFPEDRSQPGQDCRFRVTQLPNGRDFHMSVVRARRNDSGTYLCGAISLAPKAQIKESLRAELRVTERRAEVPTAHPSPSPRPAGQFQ
Assay: ELISA, coated human PD-1ECD-hFc; antibody 1 nM
Would you mind telling me the reported OD450 nm of each entry?
Numbers only.

* chimeric anti-PD-1 antibody 32B5C7 (antibody, V domains shown, Purified from hybridoma of Harbour H2L2 mice: human variable regions, rat constant regions) VH: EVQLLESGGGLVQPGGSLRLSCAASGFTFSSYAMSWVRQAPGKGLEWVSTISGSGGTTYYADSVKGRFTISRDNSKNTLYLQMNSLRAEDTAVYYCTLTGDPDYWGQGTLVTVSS VL: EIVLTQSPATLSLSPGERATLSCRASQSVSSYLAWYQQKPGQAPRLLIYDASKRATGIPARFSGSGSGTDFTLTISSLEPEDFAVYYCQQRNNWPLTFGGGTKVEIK | 3.02
* chimeric anti-PD-1 antibody 21G8F11 (antibody, V domains shown, Purified from hybridoma of Harbour H2L2 mice: human variable regions, rat constant regions) VH: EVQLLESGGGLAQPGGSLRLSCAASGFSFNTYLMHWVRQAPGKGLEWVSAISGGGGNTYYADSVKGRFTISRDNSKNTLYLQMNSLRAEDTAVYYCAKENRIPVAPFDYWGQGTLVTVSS VL: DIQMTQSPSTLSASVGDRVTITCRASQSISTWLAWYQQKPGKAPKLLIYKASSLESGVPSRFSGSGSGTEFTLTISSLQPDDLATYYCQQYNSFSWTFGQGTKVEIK | 2.83
* chimeric anti-PD-1 antibody 226C3A7 (antibody, V domains shown, Purified from hybridoma of Harbour H2L2 mice: human variable regions, rat constant regions) VH: QVQLQQSGPGLVNPSQTLSLTCAISGDSVSSNSGAWNWIRQSPSRGLEWLGRTYYRSKWYNDYGISVQSRITINPDTSKNHFSLQLNSVTPEDTAVYYCARDPYYYGSGSYFDYWGQGTLVTVSS VL: EIVMTQSPATLSVSPGERVTLSCRASLSVNSNLAWYQQKPGQAPRLLIYDTSTRATGVPARFSGSGSGTEFTLTISSLQSEDFAVYYCQQYHYWPLTFGGGTKVEIK | 2.86

Lab note: next binder to report on.
Return the recorded OD450 nm value; entry: chimeric anti-PD-1 antibody 76G5B3 (antibody, V domains shown, Purified from hybridoma of Harbour H2L2 mice: human variable regions, rat constant regions) VH: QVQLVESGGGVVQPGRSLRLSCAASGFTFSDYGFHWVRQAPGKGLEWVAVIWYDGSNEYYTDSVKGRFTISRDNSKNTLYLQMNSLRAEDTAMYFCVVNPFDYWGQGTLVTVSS VL: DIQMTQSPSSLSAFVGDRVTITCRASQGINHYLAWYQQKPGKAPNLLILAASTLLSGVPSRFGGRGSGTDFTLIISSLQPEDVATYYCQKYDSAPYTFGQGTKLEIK
3.07
